Assay: Measurement of LogD
Format: physicochemical
Conditions: n-octanol/sodium phosphate buffer, pH 7.4
Quantity kind: logD
In your answer, state the number alone without any accompanying words.

Kindly indicate its recorded logD. Item: CCC(C)N(C)C(=O)c1cc2ccccc2c(-c2ccccc2Cl)n1 (stereo not shown)
3.97
